Experiment: Photochromic properties of photochromic laminate (plastic lens) prepared by coating method
Assay type: physicochemical
Details: 40 µm photochromic layer on thiourethane lens, 0.25 mmol compound per 100 g monomers, after color development
measured.attribute: Maximum absorption wavelength (nm)
Supply the numeric figure in nm, leaving out any unit text.

The examples below pair each entry with its known result.
Consider the compound shown here: COCCOCCC1(CCOCCOC)c2cc(C)ccc2-c2c1c1c(c3cc(C)ccc23)OC(c2ccc(N(C)c3ccc(F)cc3)cc2)(c2ccc(OC)c(OC)c2)C=C1 (stereo not drawn) What is its recorded Maximum absorption wavelength?
474

GET /values?readout=Maximum absorption wavelength&item= COc1cc2c3c(c4c(c2cc1OC)-c1ccc(-c2ccc(C(F)(F)F)cc2)cc1C4(CCCC(F)(F)F)CCCC(F)(F)F)C=CC(c1ccc(Oc2ccccc2)cc1)(c1ccc(N(C)c2ccccc2)cc1)O3 (stereo not drawn)
489

Please examine the following record next.
Which Maximum absorption wavelength is reported for this compound? CCCCC1(CCCC)c2cc(-c3ccc(OC(C)C)cc3)ccc2-c2c1c1c(c3cc(OC)ccc23)OC(c2ccc(N(C)c3ccccc3)cc2)(c2ccc(OC)c(F)c2)C=C1 (stereo not drawn)
489

----------
Assay: Photochromic properties of photochromic cured product prepared by kneading method
Type: physicochemical
Conditions: 1 mm cured product, 0.106 mmol per 100 g monomer, 23°C color optical density ε(300)-ε(0)
measured.attribute: A23

Item COCCCCC1(CCCCOC)c2ccccc2-c2c1c1c(c3cc(-c4ccc(OC)cc4OC)c(OC)cc23)OC(c2ccc(N(C)c3ccccc3)cc2)(c2ccc3c(c2)CCO3)C=C1 (centres unmarked) has what recorded A23?
1.02 -

Look up A23 for this compound: CCC1(CC)CCC2(CC1)c1cc(OC(F)(F)F)ccc1-c1c2c2c(c3cc(OC)ccc13)OC(c1ccc(N(C)c3ccccc3)cc1)(c1ccc(OC)c(C)c1)C=C2 (centres unmarked)
0.47 -

Find the recorded A23 belonging to COCCOCCOCCOCCC1(CCOCCOCCOCCOC)c2cc(C(F)(F)F)ccc2-c2c1c1c(c3cc(OC)c(OC)cc23)OC(c2ccc(OC)cc2)(c2ccc(N(C)c3ccccc3)cc2)C=C1 (centres unmarked) and report it.
0.46 -

Item CCC1(CC)CCC2(CC1)c1ccccc1-c1c2c2c(c3cc(OC)c(N(c4ccccc4)c4ccccc4)cc13)OC(c1ccc(C)cc1)(c1ccc(N(C)c3ccc(C)cc3)cc1)C=C2 (centres unmarked) has what recorded A23?
1.41 -

Here is another compound to look at.
Could you share which A23 value was measured for CCN(c1ccc(OC)cc1)c1ccc(C2(c3ccc(OC)cc3)C=Cc3c4c(c5cc(-c6ccc(N7CCOCC7)cc6)c(OC)cc5c3O2)-c2ccccc2C4(C)C)cc1 (centres unmarked) ?
0.88 -

----------
Experiment: Accelerated deterioration (xenon weather meter X25, 120 hours) of photochromic laminate prepared by coating method
Format: physicochemical
Details: 0.25 mmol per 100 g monomers, A120/A0×100 after 120 hours xenon weather meter
measured.attribute: Residual rate (%)
Please give a number only; it is taken to be in %.

See these solved cases before continuing.
Item under review: CCCC1(CCC)c2cc(OC(F)(F)F)ccc2-c2c1c1c(c3cc(OC)c(Sc4c(C)cccc4C)cc23)OC(c2ccc(N(C)c3ccccc3)cc2)(c2ccc(OC)c(OC)c2)C=C1 (stereo not drawn) . Reported Residual rate?
65

Requested read-out: Residual rate. Entry: COc1ccc(N(C)c2ccc(C3(c4ccc(CCO[Si](C)(C)CC[Si](O[Si](C)(C)C)(O[Si](C)(C)C)O[Si](C)(C)C)cc4)C=Cc4c5c(c6cc(N(C)c7ccccc7)c(OC)cc6c4O3)-c3ccc(C(F)(F)F)cc3C53CCC(C)(C)CC3)cc2)cc1 (stereo not drawn)
62

For COCCN(c1ccccc1)c1ccc(C2(c3ccc4c(c3)OCCO4)C=Cc3c4c(c5cc6c(cc5c3O2)SC(C)(C)O6)-c2ccccc2C42CCC3(CCCCC3)CC2)cc1 (stereo not drawn) , what is its reported Residual rate?
63

Would you kindly share the measured Residual rate for COCCCCC1(CCCCOC)c2ccccc2-c2c1c1c(c3cc(-c4ccc(OC)cc4OC)c(OC)cc23)OC(c2ccc(N(C)c3ccccc3)cc2)(c2ccc3c(c2)CCO3)C=C1 (stereo not drawn) ?
61

Request the reported Residual rate associated with CCCC1(CCC)c2ccccc2-c2c1c1c(c3cc(OC)c(-c4ccc(OC)cc4OC)cc23)OC(c2ccc(C)cc2)(c2ccc(N(C)c3ccccc3)cc2)C=C1 (stereo not drawn)
64

Bench note: what Residual rate did COc1ccc(C2(c3ccc(N(C)c4ccccc4)cc3)C=Cc3c4c(c5cc6c(cc5c3O2)SC(C)(C)S6)-c2ccc(-c3ccc(F)c(F)c3F)cc2C42CCCCCCCCCCC2)cc1 (stereo not drawn) show?
58

Requested read-out: Residual rate. Entry: CCCOc1ccc(C2(c3ccc(N(CC(F)(F)F)c4ccccc4)cc3)C=Cc3c4c(c5cc(-c6ccc(OC)cc6)c(C)cc5c3O2)-c2ccc(C)cc2C4(CC)CC)cc1 (stereo not drawn)
56

Which measured Residual rate value corresponds to CCC1(CC)CCC2(CC1)c1cc(OC(F)(F)F)ccc1-c1c2c2c(c3cc(OC)ccc13)OC(c1ccc(N(C)c3ccccc3)cc1)(c1ccc(OC)c(C)c1)C=C2 (stereo not drawn) ?
57

What does the data say about its Residual rate? Entry: CCCCOCCC1(CCOCCCC)c2ccccc2-c2c1c1c(c3cc(OC)c(NC(=O)c4ccccc4)cc23)OC(c2ccc(N(C)c3ccccc3)cc2)(c2ccc(OC)c(F)c2)C=C1 (stereo not drawn)
58

Field request: Residual rate | item: CCCC1(CCC)c2ccccc2-c2c1c1c(c3cc(OC)c(-c4ccc(N(C)c5ccccc5)cc4)cc23)OC(c2ccc(C)cc2)(c2ccc(N(C)c3ccccc3)cc2)C=C1 (stereo not drawn)
62

Continuing:
Would you kindly share the measured Residual rate for COCCCCC1(CCCCOC)c2cc(Sc3c(C)cccc3C)ccc2-c2c1c1c(c3cc(OC)ccc23)OC(c2ccc(OC)cc2)(c2ccc(N(C)c3ccc(OC)cc3)cc2)C=C1 (stereo not drawn) ?
60

Given the entry COCCCCC1(CCCCOC)c2cc(-c3ccccc3)ccc2-c2c1c1c(c3cc(OC)c(N4CCS(=O)(=O)CC4)cc23)OC(c2ccc(OCCOCCOC)cc2)(c2ccc(N(C)c3ccccc3)cc2)C=C1 (stereo not drawn) , report its measured Residual rate.
60

The reported numbers originate from patent EP4692072A1.
